Source: paper PMC7259466

- Tested on: Vero-E6 cells
- Experiment notes: Nuclei counts in autophagy assay in Vero-E6 cells
- Format: cell-based
- Assay context: highest concentrations (50 μM for all except for ROC-325 at 25 μM)

{"columns": ["Molecule", "cytotoxicity based on nuclei counts"],
 "data": [
  ["CCN(CCO)CCCC(C)Nc1ccnc2cc(Cl)ccc12 (stereo not shown) [Hydroxychloroquine, hydroxychloroquine]", "not cytotoxic"],
  ["CCN(CC)CCCC(C)Nc1ccnc2cc(Cl)ccc12 (stereo not shown) [Chloroquine]", "not cytotoxic"],
  ["CN(C)CCCN1c2ccccc2CCc2ccc(Cl)cc21 [Clomipramine]", "not cytotoxic"]
]}

---

- Experiment notes: Cell
- Format: cell-based
Measure name: CC50 at 16 h (µM)
Entry rule: numbers only, all in µM.

{"columns": ["Compound", "Result units", "CC50 at 16 h"],
 "data": [
  ["OC(c1cc(C(F)(F)F)nc2c(C(F)(F)F)cccc12)C1CCCCN1 (stereo not shown)", "µM", 18.4]
]}

Sample CCN(CC)CCNc1ccc(CO)c2sc3ccccc3c(=O)c12 — what was its CC50 at 16 h?
11.3
